# koff values compiled below
TARGET SYSTEM: T1, biotinylated recombinant human IL-12Rβ2 (human, UniProt Q99665 24-622, random biotinylated)
T1 construct: Recombinant protein produced in-house; also called hIL-12RB2; human IL-12RB2
T1 sequence: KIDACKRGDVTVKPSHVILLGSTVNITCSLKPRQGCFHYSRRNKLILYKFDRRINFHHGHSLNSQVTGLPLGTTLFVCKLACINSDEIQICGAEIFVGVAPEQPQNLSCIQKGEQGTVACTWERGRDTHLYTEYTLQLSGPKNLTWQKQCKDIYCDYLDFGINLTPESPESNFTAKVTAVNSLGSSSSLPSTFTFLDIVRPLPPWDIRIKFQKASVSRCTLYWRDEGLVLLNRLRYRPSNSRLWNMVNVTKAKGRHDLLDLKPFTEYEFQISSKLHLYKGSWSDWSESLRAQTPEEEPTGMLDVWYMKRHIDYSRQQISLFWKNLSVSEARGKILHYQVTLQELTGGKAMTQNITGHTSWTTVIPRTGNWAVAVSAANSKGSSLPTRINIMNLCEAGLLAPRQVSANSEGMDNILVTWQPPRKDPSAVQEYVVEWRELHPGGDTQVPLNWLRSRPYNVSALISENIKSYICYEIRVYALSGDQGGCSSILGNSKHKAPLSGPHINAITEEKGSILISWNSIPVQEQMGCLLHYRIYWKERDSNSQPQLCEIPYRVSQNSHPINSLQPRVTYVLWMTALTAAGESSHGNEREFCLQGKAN
TEST SUMMARY: BLI, P.E., off-rate ranking

# BINDER, VALUE UNIT, koff
records = [
    ("anti-IL-12Rβ2 VHH clone 3CRHS142 (clone ID 20434) (VHH, not shown: small tags and cut ends, periplasmic extract) VHH: QVQLQESGGGLVQAGGSLRLSCVSSQTLVGIEAMGWYRQAPGKQRELVALITLNGGTFYADSVKGRFTISRDVAEHMLYLEMNSLNPEDTAVYFCVAGVESDNEEPTYWGQGTQVTVSS", "s⁻¹", 0.00275),
    ("anti-IL-12Rβ2 VHH clone 2CRH73 (clone ID 20369) (VHH, not shown: small tags and cut ends, periplasmic extract) VHH: QVQLQESGGGLVQAGGSLRLTCTASGSAALIFLMSWYRQAPGKQRELVAEVSRRGSTTYADSVEGRFTISRDNAKNIVDLQMNSLKPEDTAVYYCKADQYYGDSLRSSWGRGTQVTVSS", "s⁻¹", 0.00536),
    ("anti-IL-12Rβ2 VHH clone 2CRH41 (clone ID 20365) (VHH, not shown: small tags and cut ends, periplasmic extract) VHH: QVQLQESGGGLVQPGGSLRLSCTASGFAFSSYWMYWVRQSPEKGFEWVSVVDTDGGITYYADSVKGRFTISRDNAKNTLYLQMNSLKPQDTALYYCARDRTTLEYTRTYYRTGQGTQVTVSS", "s⁻¹", 0.00496),
    ("anti-IL-12Rβ2 VHH clone 3CAHS142 (clone ID 20401) (VHH, not shown: small tags and cut ends, periplasmic extract) VHH: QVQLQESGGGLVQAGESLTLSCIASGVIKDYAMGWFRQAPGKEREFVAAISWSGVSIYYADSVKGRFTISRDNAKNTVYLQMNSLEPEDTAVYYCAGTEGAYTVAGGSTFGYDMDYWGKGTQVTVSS", "s⁻¹", 0.00324),
]

FYI, the data here is from patent US20260209362A1.
